Molecular target: Interleukin-23 receptor (Homo sapiens)
Sequence (Q5VWK5 whole entry): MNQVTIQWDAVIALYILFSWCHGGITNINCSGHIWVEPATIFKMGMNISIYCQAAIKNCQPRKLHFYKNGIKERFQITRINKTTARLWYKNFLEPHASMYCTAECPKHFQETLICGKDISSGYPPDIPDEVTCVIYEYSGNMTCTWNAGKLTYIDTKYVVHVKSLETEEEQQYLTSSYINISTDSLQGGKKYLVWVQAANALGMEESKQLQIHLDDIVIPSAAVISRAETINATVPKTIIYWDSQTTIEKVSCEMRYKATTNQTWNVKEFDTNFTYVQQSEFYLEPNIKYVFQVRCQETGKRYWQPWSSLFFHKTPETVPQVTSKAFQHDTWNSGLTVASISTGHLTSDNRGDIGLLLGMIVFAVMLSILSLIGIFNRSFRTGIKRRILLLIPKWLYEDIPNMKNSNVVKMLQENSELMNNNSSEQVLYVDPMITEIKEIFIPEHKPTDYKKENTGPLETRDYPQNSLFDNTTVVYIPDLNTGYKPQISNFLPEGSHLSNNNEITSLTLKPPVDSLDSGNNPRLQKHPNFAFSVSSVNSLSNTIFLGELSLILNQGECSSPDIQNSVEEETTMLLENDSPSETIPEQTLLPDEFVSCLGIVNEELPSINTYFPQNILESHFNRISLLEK
Assay: Inhibition of interleukin-23 receptor in human natural killer cells assessed as reduction in IL23/IL18-induced IFNgamma production incubated for 20 to 24 hrs by ELISA
Type: cell-based
Known IC50 of a selection of molecules

IN: # lookup: IC50 of "CC(=O)NCCCC[C@H](NC(=O)C(C)(C)NC(=O)[C@H](Cc1ccc2ccccc2c1)NC(=O)[C@H](Cc1ccc(OCCN)cc1)NC(=O)[C@@H](NC(=O)[C@H](CCC(N)=O)NC(=O)[C@H](Cc1c[nH]c2ccccc12)NC(=O)[C@@H](NC(=O)[C@H](CC(N)=O)NC(=O)[C@@H](NC(C)=O)C(C)(C)S)[C@@H](C)O)C(C)(C)S)C(=O)N[C@@H](CC(N)=O)C(=O)N[C@@H](CC(N)=O)C(N)=O"
OUT: < 10 nM

IN: # lookup: IC50 of "CC(=O)NCCCC[C@H](NC(=O)[C@@](C)(NC(=O)[C@H](Cc1ccc2ccccc2c1)NC(=O)[C@H](Cc1ccc(OCCN)cc1)NC(=O)[C@@H]1CSCC[C@H](NC(C)=O)C(=O)N[C@@H](CCC(N)=O)C(=O)N[C@@H]([C@@H](C)O)C(=O)N[C@@H](Cc2c[nH]c3ccccc23)C(=O)N[C@@H](CCC(N)=O)C(=O)N1)C(C)C)C(=O)N[C@@H](CC(N)=O)C(=O)NCC(N)=O"
OUT: < 25 nM

IN: # lookup: IC50 of "CC(=O)N[C@H]1CCSC[C@@H](C(=O)N[C@@H](Cc2ccc(OCCN)cc2)C(=O)N[C@@H](Cc2ccc3ccccc3c2)C(=O)N[C@@](C)(CCCCN)C(=O)N[C@@H](CCCCNC(=O)CC(C)C)C(=O)N[C@@H](CC(N)=O)C(=O)NCC(N)=O)NC(=O)[C@H](CCC(N)=O)NC(=O)[C@H](Cc2c[nH]c3ccccc23)NC(=O)[C@H]([C@@H](C)O)NC(=O)[C@H](CCC(N)=O)NC1=O"
OUT: < 25 nM
